target entity: 5-HT1a (Homo sapiens, UniProt P08908)
Construct: purchased Euroscreen/BioSignal Packard Inc
Sequence (P08908 whole entry): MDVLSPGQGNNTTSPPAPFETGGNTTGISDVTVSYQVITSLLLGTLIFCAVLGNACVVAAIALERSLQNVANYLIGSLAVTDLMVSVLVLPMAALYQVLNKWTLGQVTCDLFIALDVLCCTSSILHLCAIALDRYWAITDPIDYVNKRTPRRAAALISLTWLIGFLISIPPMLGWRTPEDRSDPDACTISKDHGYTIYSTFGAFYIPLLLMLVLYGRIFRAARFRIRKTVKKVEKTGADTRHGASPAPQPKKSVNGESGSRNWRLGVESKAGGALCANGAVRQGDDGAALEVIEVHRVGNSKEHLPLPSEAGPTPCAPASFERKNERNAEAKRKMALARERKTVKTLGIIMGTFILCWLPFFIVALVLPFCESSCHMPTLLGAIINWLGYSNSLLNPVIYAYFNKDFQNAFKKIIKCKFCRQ
test protocol: Radioligand binding, 5-HT1a ([3H]8-OH-DPAT)
condition context: read-out: Binding affinity (Inhibition rate % at 10 μM) 5HT1a
Exercise: state measured inhibition at 10 µM for each of the compounds provided.
Write the quantity with the unit trailing the number.

[[record]]
compound = "CC1(c2ccccc2)C(=O)Nc2c(Br)cc(Br)cc2C1=O (stereo not shown)"
target_entity = "5-HT1a (Homo sapiens, UniProt P08908)"
quantity_name = "inhibition at 10 µM"
measurement = "0%"

[[record]]
compound = "CN1CCN(c2ccc3c(c2)NC(=O)C(C)(c2ccc([N+](=O)[O-])cc2)C3=O)CC1 (stereo not shown)"
target_entity = "5-HT1a (Homo sapiens, UniProt P08908)"
quantity_name = "inhibition at 10 µM"
measurement = "44.2%"

[[record]]
compound = "CC1(c2ccc(Br)cc2Br)C(=O)Nc2cc(Cl)ccc2C1=O (stereo not shown)"
target_entity = "5-HT1a (Homo sapiens, UniProt P08908)"
quantity_name = "inhibition at 10 µM"
measurement = "60.3%"

[[record]]
compound = "COc1cc(Cl)c2c(c1)NC(=O)C(C)(c1ccc(Br)cc1)C2=O (stereo not shown)"
target_entity = "5-HT1a (Homo sapiens, UniProt P08908)"
quantity_name = "inhibition at 10 µM"
measurement = "7.8%"

[[record]]
compound = "C[C@H](NC(=O)Nc1cccc([C@@]2(C)C(=O)Nc3cc(Cl)cc(Cl)c3C2=O)c1)c1ccccc1"
target_entity = "5-HT1a (Homo sapiens, UniProt P08908)"
quantity_name = "inhibition at 10 µM"
measurement = "18%"


Count: 5. Required value per item: inhibition at 10 µM.
1. CN1CCN(c2cc(Cl)c3c(c2)NC(=O)C(C)(c2ccc(O)cc2)C3=O)CC1 (stereo not shown)
2. CC1(c2ccccc2)C(=O)Nc2cc(Br)cc(Br)c2C1=O (stereo not shown)
3. CC1(c2ccc(Cl)cc2)C(=O)Nc2cc(Cl)cc(Cl)c2C1=O (stereo not shown)
4. COc1ccc(C2(C)C(=O)Nc3ccccc3C2=O)cc1 (stereo not shown)
5. COc1cc(Cl)cc2c1C(=O)C(C)(c1ccccc1)C(=O)N2 (stereo not shown)

["27.1%", "11.7%", "26.7%", "20.4%", "65.8%"]

Count: 2. Required value per item: inhibition at 10 µM.
1. CC1(c2ccccc2)C(=O)Nc2cc(Cl)c(Cl)cc2C1=O (stereo not shown)
2. CC1(c2ccc(I)cc2)C(=O)Nc2cc(Cl)cc(Cl)c2C1=O (stereo not shown)

1. 45.2%
2. 43.5%

Count: 6. Required value per item: inhibition at 10 µM.
1. CC1(c2ccc(Br)cc2Br)C(=O)Nc2cc(Cl)cc(Cl)c2C1=O (stereo not shown)
2. CN(C)c1cc(Cl)c2c(c1)NC(=O)C(C)(c1ccccc1)C2=O (stereo not shown)
3. CC1(c2ccccc2)C(=O)Nc2ccccc2C1=O (stereo not shown)
4. CC1(c2ccc(O)cc2)C(=O)Nc2ccccc2C1=O (stereo not shown)
5. C[C@H](NC(=O)Oc1cccc(C2(C)C(=O)Nc3cc(Cl)cc(Cl)c3C2=O)c1)c1ccccc1 (stereo partly shown)
6. CC1(c2ccc(OCc3ccccc3)c(Br)c2)C(=O)Nc2cc(Cl)cc(Cl)c2C1=O (stereo not shown)

1: 46%; 2: 49.5%; 3: 15%; 4: 19.8%; 5: 0%; 6: 64.9%

Name the recorded inhibition at 10 µM for COc1cc(C2(C)C(=O)Nc3ccccc3C2=O)ccc1O (stereo not shown) .
31.2%
